- measured target: SLC41A1-related Na+/Mg2+ exchanger (Homo sapiens, UniProt Q8IVJ1)
- Sequence (Q8IVJ1 whole entry): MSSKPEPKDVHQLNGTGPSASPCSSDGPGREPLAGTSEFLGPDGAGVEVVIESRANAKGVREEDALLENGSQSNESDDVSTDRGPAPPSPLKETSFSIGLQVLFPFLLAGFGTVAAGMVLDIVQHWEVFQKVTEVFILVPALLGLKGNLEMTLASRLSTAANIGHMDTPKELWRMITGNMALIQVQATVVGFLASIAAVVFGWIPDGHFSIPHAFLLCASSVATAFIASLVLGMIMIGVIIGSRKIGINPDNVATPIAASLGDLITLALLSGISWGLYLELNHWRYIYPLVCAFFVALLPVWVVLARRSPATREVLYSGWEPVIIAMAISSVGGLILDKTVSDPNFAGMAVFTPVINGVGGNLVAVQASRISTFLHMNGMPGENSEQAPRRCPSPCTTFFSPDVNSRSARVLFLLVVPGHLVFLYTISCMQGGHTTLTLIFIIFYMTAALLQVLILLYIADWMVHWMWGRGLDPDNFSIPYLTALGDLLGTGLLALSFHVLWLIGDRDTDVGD
- run description: Modulators of SLC41A1-related Na+/Mg2+ exchanger activity (Table 3);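 note: listed substances are classed by whether they raise or lower SLC41A1-related Na+/Mg2+ exchanger activity, acting directly on the protein or through cellular signalling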
- Type: cell-based
- condition details: at the dosage given, where given
readout label: Effect on Na+/Mg2+ exchanger

Worked examples follow.
compound: CO[C@H]1C[C@H](O[C@H]2CC[C@@]3(C)[C@H](CC[C@@H]4[C@@H]3CC[C@]3(C)[C@@H](C5=CC(=O)OC5)[C@@H](OC(C)=O)C[C@]43O)C2)O[C@@H](C)[C@@H]1O
Effect on Na+/Mg2+ exchanger: inhibition

compound: C[C@]12CCC(=O)C=C1CC[C@@H]1[C@@H]2[C@@H](O)C[C@]2(C=O)[C@@H](C(=O)CO)CC[C@@H]12
Effect on Na+/Mg2+ exchanger: activation

compound: COc1ccc2c(c1)c(CC(=O)O)c(C)n2C(=O)c1ccc(Cl)cc1
Effect on Na+/Mg2+ exchanger: activation

compound: C[C@]12CC[C@H](O)C[C@@]1(O)CC[C@@H]1[C@@H]2CC[C@]2(C)[C@@H](c3ccc(=O)oc3)C[C@H]3O[C@]132
Effect on Na+/Mg2+ exchanger: inhibition

compound: N=C(N)NC(=O)c1nc(Cl)c(N)nc1N [Amiloride]
Effect on Na+/Mg2+ exchanger: Inhibition

So what Effect on Na+/Mg2+ exchanger did CCCCC/C=C\C/C=C\C/C=C\C/C=C\CCCC(=O)O get with SLC41A1-related Na+/Mg2+ exchanger (Homo sapiens, UniProt Q8IVJ1)?
activation

Form field - read-out: Effect on Na+/Mg2+ exchanger; system: SLC41A1-related Na+/Mg2+ exchanger (Homo sapiens, UniProt Q8IVJ1); submitted item: N/C(=N\C(=O)c1nc(Cl)c(N)nc1N)NCc1ccccc1
Inhibition

====

- measured target: SLC41A1-related Na+/Mg2+ exchanger (Homo sapiens)
- run description: Modulators of SLC41A1-related Na+/Mg2+ exchanger activity (Table 3)
- Assay type: cell-based
- condition details: at the dosage given, where given
readout label: Effect on Na+/Mg2+ exchanger

Example results:
compound: CS(=O)(=O)O.N=C(N)SCCc1ccc(OCc2ccc([N+](=O)[O-])cc2)cc1
measured target: SLC41A1-related Na+/Mg2+ exchanger (Homo sapiens)
readout label: Effect on Na+/Mg2+ exchanger
reported: Inhibition
--
compound: CCN(CC)CC(=O)Nc1c(C)cccc1C
measured target: SLC41A1-related Na+/Mg2+ exchanger (Homo sapiens)
readout label: Effect on Na+/Mg2+ exchanger
reported: Inhibition
--
compound: C[C@]12CC[C@H](O)C[C@H]1CC[C@@H]1[C@@H]2CC[C@]2(C)[C@@](O)(c3ccoc3)CC[C@]12O
measured target: SLC41A1-related Na+/Mg2+ exchanger (Homo sapiens)
readout label: Effect on Na+/Mg2+ exchanger
reported: inhibition
--
compound: CC(C)NCC(O)c1ccc(O)c(O)c1 (stereo not shown)
measured target: SLC41A1-related Na+/Mg2+ exchanger (Homo sapiens)
readout label: Effect on Na+/Mg2+ exchanger
reported: activation
--
compound: O=c1c(-c2ccc(O)cc2)coc2cc(O)cc(O)c12
measured target: SLC41A1-related Na+/Mg2+ exchanger (Homo sapiens)
readout label: Effect on Na+/Mg2+ exchanger
reported: inhibition

I would be grateful if you could share the reported Effect on Na+/Mg2+ exchanger for Nc1ncnc2c1ncn2[C@@H]1O[C@@H]2COP(O)(=S)O[C@H]2[C@H]1O (stereo partly shown) .
inhibition

Bench note: what Effect on Na+/Mg2+ exchanger did CCOc1ccc(Oc2ccc(OCc3cc(F)ccc3F)cc2)c(N)c1 show?
Inhibition

I am curious: what Effect on Na+/Mg2+ exchanger value has been reported for Nc1ncnc2c1nc(Cl)n2[C@@H]1O[C@@H]2COP(=O)(O)O[C@H]2[C@H]1O ?
activation

Requested field: Effect on Na+/Mg2+ exchanger. Item: CN(C)CCCN1c2ccccc2CCc2ccccc21
Inhibition
